biological target: mouse LMP7 (Mus musculus, UniProt O09061+P28063); experiment: Cellular LMP7 activity in mouse P3X63Ag8.653 cells
Measured property: pIC50
Kindly note that pIC50 refers to -log10 of the concentration in mol/L and answer with the value alone.

Quick check: pIC50 of CC(C)C[C@H](NC(=O)[C@H](Cc1ccccc1)NC(=O)c1cnccn1)B(O)O ?
8.28

* * *

target: constitutive proteasome subunit β2 (Homo sapiens, UniProt P49720+Q99436); assay: Cell-free proteasome subunit peptide cleavage assay, β2
Measured property: IC50

Returns the measured IC50 for the input molecule. Input: CC(C)C[C@H](NC(=O)CNC(=O)c1cc(Cl)ccc1Cl)B(O)O
> 30 µM

* * *

target: constitutive proteasome subunit β1 (Homo sapiens, UniProt P28072+Q99436); experiment: Cell-free proteasome subunit peptide cleavage assay, β1
Measured property: IC50 (nM)
Report the figure in nM without appending any unit label.

Lookup: IC50 / constitutive proteasome subunit β1 (Homo sapiens, UniProt P28072+Q99436) / CC(C)C[C@H](NC(=O)CNC(=O)c1cc(Cl)ccc1Cl)B(O)O
28
